tested on: P388 leukemia ip, CD2F1 mice, survival T/C; assay: NCI In Vivo Anticancer Drug Screen. Data for tumor model P388 Leukemia (intraperitoneal) in CD2F1 (CDF1) mice; settings: endpoint: median survival time; dose: 50.0 mg/kg/injection; schedule: Q01DX009 (ip); vehicle: other; higher = longer survival
Toxic doses and inconclusive results are not listed.
value-type: T/C

* NNS(=O)(=O)c1cccc([N+](=O)[O-])c1 | 103 % of control
* O=C(Nc1cnns1)Oc1ccccc1 | 93 % of control
* CC(=O)c1ccc2ccccc2n1 | 105 % of control
* COc1cc(Br)cc(C(=O)O)c1OC | 106 % of control

compound `CCCCCCCCCCCCCCCCS(=O)(=O)N/N=C(/c1ccc(OC)c(OC)c1)N1CCCCC1` , T/C observed: 102 % of control

T/C reported for this compound `COc1ccc(/C(C)=N/NS(=O)(=O)c2ccc(C)cc2)cc1OC` : 96 % of control

The compound listed as `Cc1ccc(S(=O)(=O)N/N=C/C=N/NS(=O)(=O)c2ccc(C)cc2)cc1` shows T/C equal to 105 % of control

Item: `CN(N=O)P(=O)(Nc1ccccc1)Nc1ccccc1` | T/C: 100 % of control

Note to self: T/C recorded for `c1cncc(-c2n[nH]c3c2CCCc2ccccc2-3)c1` was 107 % of control

The value of T/C measured for the compound `O=[N+]([O-])c1ccc(OCC#CCOc2ccc([N+](=O)[O-])c(C(F)(F)F)c2)cc1C(F)(F)F` turned out to be 105 % of control

====

Attribute: T/C
tested on: P388 leukemia ip, CD2F1 mice, survival T/C; assay: NCI In Vivo Anticancer Drug Screen. Data for tumor model P388 Leukemia (intraperitoneal) in CD2F1 (CDF1) mice; conditions: endpoint: median survival time; dose: 25.0 mg/kg/injection; schedule: Q04DX002 (ip); vehicle: saline with Tween-80; higher = longer survival
Toxic doses and inconclusive results are not listed.

These solved cases illustrate the format of a correct answer.
* COc1nc(N(C)C)c2cnn(C3CCCCO3)c2n1 (centres undefined) | 97 % of control
* N#Cc1sc(SCC(=O)O)c(-[n+]2ccccc2)c1N | 95 % of control
* CN=C(N)N/N=C(\c1ccccc1)c1ccc(Cl)c([N+](=O)[O-])c1 | 105 % of control

# input for lookup
Per the record, `CCCCc1c2cnccc2c(CCCC)c2c1[nH]c1ccccc12` has T/C of 105 % of control

====

system: P388 leukemia ip, CD2F1 mice, survival T/C; assay: NCI In Vivo Anticancer Drug Screen. Data for tumor model P388 Leukemia (intraperitoneal) in CD2F1 (CDF1) mice; details: endpoint: median survival time; dose: 200.0 mg/kg/injection; schedule: Q01DX009 (ip); vehicle: saline with Tween-80; higher = longer survival
Toxic doses and inconclusive results are not listed.
T/C values for the compounds below.

* O=C([O-])[O-].O=[N+]([O-])O.[Co+3].[NH2-].[NH2-].[NH2-].[NH2-] | 113 % of control
* CC[Si](/C=C(/C)C(C)(C)C)(CC)CC | 113 % of control
* COc1cccc(OC)c1N | 92 % of control
* COc1cc(/C=C/c2ccc3ccccc3n2)cc(OC)c1OC | 90 % of control
* O=C(c1ccccc1)c1ccc2c(c1)-c1ccccc1-2 | 104 % of control

Let's switch to this compound now.
Given item `CCCCCCC1(/C=C\c2ccccc2)OCCO1` , the value recorded as its T/C is 101 % of control

====

test system: P388 leukemia ip, CD2F1 mice, survival T/C; test: NCI In Vivo Anticancer Drug Screen. Data for tumor model P388 Leukemia (intraperitoneal) in CD2F1 (CDF1) mice; conditions: endpoint: median survival time; dose: 60.0 mg/kg/injection; schedule: Q01DX005 (ip); vehicle: saline with Tween-80; higher = longer survival
Inconclusive results and toxic doses are left out.
Attribute: T/C

# annotated cases, reported T/C shown
- OCC1OC(n2c(=S)[nH]c3ccccc32)C(O)C1O (configuration not stated): 98 % of control
- CCOc1ccc(C(C[N+](=O)[O-])Sc2ccccc2N)cc1 (configuration not stated): 97 % of control
- CSC(=CC(=O)c1ccco1)SC: 98 % of control
- COc1ccccc1NC(=O)CC(=O)N1N=C(C)C(N=Nc2cccc(C(=O)O)c2)C1=O (configuration not stated): 98 % of control
- Nc1nnc(-c2ccc(Cl)cc2)o1: 100 % of control
- CS(=O)(=O)N/N=C(\N)Oc1ccc(Cl)cc1Cl: 97 % of control

Reported T/C for CC(=O)c1cc(Cl)ccc1OCC(O)CNc1ccc(Cl)cc1C(=O)c1ccccc1 (configuration not stated) was 90 % of control

Reported T/C for COC(=O)C1(CC(=O)c2cc(Cl)ccc2Cl)NC(=S)NC(=O)C1C#N (configuration not stated) was 94 % of control

====

system: P388 leukemia ip, CD2F1 mice, survival T/C; experiment: NCI In Vivo Anticancer Drug Screen. Data for tumor model P388 Leukemia (intraperitoneal) in CD2F1 (CDF1) mice; settings: endpoint: median survival time; dose: 60.0 mg/kg/injection; schedule: Q01DX005 (ip); vehicle: saline; higher = longer survival
Inconclusive results and toxic doses are left out.
The entries below come with measured T/C values attached.

Worked cases, answers included:
* O=C(O)CNC(CO)(CO)CO | 102 % of control
* COC(=O)c1cc(-c2cccnc2)[nH]c(=O)c1C#N | 104 % of control

Please examine the following record next.
T/C reported for this molecule Oc1ccc2c(c1O)/C(=C/C=NCC1(O)OCC(O)C(O)C1O)C=N2 (stereo not drawn) : 101 % of control

====

tested on: P388 leukemia ip, CD2F1 mice, survival T/C; assay: NCI In Vivo Anticancer Drug Screen. Data for tumor model P388 Leukemia (intraperitoneal) in CD2F1 (CDF1) mice; conditions: endpoint: median survival time; dose: 200.0 mg/kg/injection; schedule: Q01DX005 (ip); vehicle: saline with Tween-80; higher = longer survival
Toxic doses and inconclusive results are not listed.
value-type: T/C

• O=C1CS(=O)(=O)C(c2ccccc2Cl)N1N1C(=O)CS(=O)(=O)C1c1ccccc1Cl (stereo not given) = 89 % of control
• COc1ccc(CCNC2=CC(=O)CCC2)cc1OC = 101 % of control
• COc1ccc(C2CC(=O)c3c(O)cc(OC4OC(CO)C(O)C(O)C4OC4OC(C)C(O)C(O)C4O)cc3O2)cc1O (stereo not given) = 92 % of control
• O=C1Nc2ccccc2C2CCCCC12 (stereo not given) = 98 % of control
• Nc1c(Br)cc(Br)c2c1C(=O)c1ccccc1-2 = 96 % of control

For this compound ( `CCOC(=O)/C(C#N)=C/c1ccc(-c2cc(C(F)(F)F)cc(C(F)(F)F)c2)o1` ), measured T/C is 88 % of control

The measured T/C associated with `S=C(NNc1nnc(-c2ccccc2)c(-c2ccccc2)n1)Nc1ccc(Br)cc1` reads 93 % of control

====

Tested on: P388 leukemia ip, CD2F1 mice, survival T/C
Assay: NCI In Vivo Anticancer Drug Screen. Data for tumor model P388 Leukemia (intraperitoneal) in CD2F1 (CDF1) mice
Details: endpoint: median survival time; dose: 25.0 mg/kg/injection; schedule: Q01DX001 (ip); vehicle: saline with Tween-80; higher = longer survival
Protocol: The antitumor activity of compounds was measured in mice bearing transplantable tumors. Survival or tumor size were measured and the results are expressed as the measurement made in the treated group (T) divided by the measurement made in the vehicle treated control group (C). The tumor model used in this assay is P388 Leukemia (intraperitoneal) in CD2F1 (CDF1) mice
Inconclusive results and toxic doses are left out.
value-type: T/C

Per the records, this compound ( `C1CNP2(=NP(N3CC3)(N3CC3)=NP(N3CC3)(N3CC3)=N2)N1` ) has T/C equal to 108 % of control

Field T/C (entry `Cc1cc2cccc(Br)c(=O)c2o1` ) reads 104 % of control

Reported T/C of `COC(=O)Cn1/c(=N\N=C(/C)c2ccc([N+](=O)[O-])cc2)sc2ccccc21` : 89 % of control

Noted for COC(=O)/C(C)=C/C1N=C1c1ccccc1 (centres undefined) : its T/C reads 114 % of control

====

tested on: P388 leukemia ip, CD2F1 mice, survival T/C; assay: NCI In Vivo Anticancer Drug Screen. Data for tumor model P388 Leukemia (intraperitoneal) in CD2F1 (CDF1) mice; details: endpoint: median survival time; dose: 200.0 mg/kg/injection; schedule: Q04DX002 (ip); vehicle: saline with Tween-80; higher = longer survival
Inconclusive results and toxic doses are left out.
In this section we review reported T/C values for a set of molecules.

- Cc1cccc(N=C(C2=C(O)c3ccccc3C2=O)c2ccccc2)c1: 92 % of control
- O=C1C(C(=NC2CCCCC2)c2ccccc2)=C(O)c2ccccc21: 100 % of control
- CCCCCCCCCCCCN1CN=C(N)N(C#N)C1: 99 % of control
- CCOc1cccc2c1C(=O)c1cccc(OCC)c1C2(O)C#Cc1ccccc1 (stereo unspecified): 87 % of control
- O=c1[nH]c(-c2ccncc2)nnc1-c1ccc(Cl)cc1: 93 % of control

Continue with the next molecule.
Record `CC(=O)CC(=O)N/N=C(N)/C(C#N)=N/N(C)c1ccccc1` has P388 leukemia ip, CD2F1 mice, survival T/C T/C equal to 94 % of control

Cited source for all entries: PubChem BioAssay AID330
